Some compounds, each annotated with its measured Ratio IC50.
Species: Homo sapiens
Assay: Ratio of IC50 for glucocorticoid receptor to IC50 for progesterone receptor
READOUT NAME: Ratio IC50

CHEMICAL SMILES	READOUT NAME	CENSORING QUALIFIER	ENDPOINT RESULT
C=C1OC(CC)=N[C@]12CC[C@H]1[C@@H]3CCC4=CC(=O)CCC4=C3[C@@H](c3ccc(OC)c(F)c3)C[C@@]12C	Ratio IC50	>	10000
C=C1OC(CC)=N[C@]12CC[C@H]1[C@@H]3CCC4=CC(=O)CCC4=C3[C@@H](c3ccc(C(C)=O)cc3)C[C@@]12C	Ratio IC50	=	620
C=C1OC=N[C@]12CC[C@H]1[C@@H]3CCC4=CC(=O)CCC4=C3[C@@H](c3ccc(N(C)C)cc3)C[C@@]12C	Ratio IC50	=	30
C=C1OC(C)=N[C@]12CC[C@H]1[C@@H]3CCC4=CC(=O)CCC4=C3[C@@H](c3ccc(N(C)C)cc3)C[C@@]12C	Ratio IC50	=	130
C=C1OC(C)=N[C@]12CC[C@H]1[C@@H]3CCC4=CC(=O)CCC4=C3[C@@H](c3ccc(C(C)=O)cc3)C[C@@]12C	Ratio IC50	=	780
C=C1OC=N[C@]12CC[C@H]1[C@@H]3CCC4=CC(=O)CCC4=C3[C@@H](c3ccc(C(C)=O)cc3)C[C@@]12C	Ratio IC50	=	171
